The reported measurements were obtained from patent US11718610B2.

test: Pharmacokinetics of single intravenous and oral administration in mice; format: in vivo; conditions: single oral administration, 50 mg/kg/day, read-out: Maximum plasma drug concentration Cmax
attribute-measured: Cmax (µM)
API: value field is a number in µM; no unit string.

{"columns": ["molecule", "Cmax / µM"],
 "data": [
  ["COc1cc(F)cc([C@@H](CO)NC(=O)[C@@H](C)N2Cc3ccc(-c4nc(NC5CCOCC5)ncc4Cl)cc3S2(=O)=O)c1 [Compound 4]", 182]
]}

# input for lookup
Inquiry: Give the measured Cmax for COc1cc(F)cc([C@@H](CO)NC(=O)[C@@H](C)N2Cc3ccc(-c4nc(NC5CCOCC5)ncc4Cl)cc3S2(=O)=O)c1 [Compound 1]
Reply text: 73.4

---

Documented half-life across a set of compounds
assay: Pharmacokinetics of single intravenous and oral administration in mice; format: in vivo; conditions: mouse, plasma, single intravenous administration, 0.5 mg/kg/day, read-out: Half-life (T1/2) (converted)
API: value field is a number in h; no unit string.

// known answers, use as guide
{"columns": ["compound", "unit-text", "half-life"],
 "data": [
  ["COc1cc(F)cc([C@@H](CO)NC(=O)[C@@H](C)N2Cc3ccc(-c4nc(N[C@H]5CCOC[C@H]5F)ncc4Cl)cc3S2(=O)=O)c1 [Compound 11]", "h", 1.17],
  ["COc1cc(F)cc([C@@H](CO)NC(=O)[C@@H](C)N2Cc3ccc(-c4nc(NC5CCOCC5)ncc4Br)cc3S2(=O)=O)c1 [Compound 3]", "h", 2.18]
]}

Inquiry: Give the measured half-life for COc1cc(F)cc([C@@H](CO)NC(=O)[C@@H](C)N2Cc3ccc(-c4nc(NC5CCOCC5)ncc4Cl)cc3S2(=O)=O)c1 [Compound 1]
Reply text: 1.16

Inquiry: Give the measured half-life for [2H]C1([2H])CC(Nc2ncc(Cl)c(-c3ccc4c(c3)S(=O)(=O)N([C@H](C)C(=O)N[C@H](CO)c3cc(F)cc(OC)c3)C4)n2)CC([2H])([2H])O1 [Compound 9]
Reply text: 1.26

---

Documented Vd across a set of molecules
test: Pharmacokinetics of single intravenous and oral administration in mice; format: in vivo; settings: mouse, plasma, single intravenous administration, 0.5 mg/kg/day, read-out: Apparent distribution volume Vdss
API: value field is a number in L/kg; no unit string.

{"columns": ["smi", "Vd [L/kg]"],
 "data": [
  ["[2H]C1([2H])CC(Nc2ncc(Cl)c(-c3ccc4c(c3)S(=O)(=O)N([C@H](C)C(=O)N[C@H](CO)c3cc(F)cc(OC)c3)C4)n2)CC([2H])([2H])O1", 0.297],
  ["COc1cc(F)cc([C@@H](CO)NC(=O)[C@@H](C)N2Cc3ccc(-c4nc(NC5CCOCC5)ncc4Br)cc3S2(=O)=O)c1", 0.656],
  ["COc1cc(F)cc([C@@H](CO)NC(=O)[C@@H](C)N2Cc3ccc(-c4nc(N[C@H]5CCOC[C@H]5F)ncc4Cl)cc3S2(=O)=O)c1", 0.422]
]}

# input for lookup
Inquiry: Give the measured Vd for COc1cc(F)cc([C@@H](CO)NC(=O)[C@@H](C)N2Cc3ccc(-c4nc(NC5CCOCC5)ncc4Cl)cc3S2(=O)=O)c1
Reply text: 0.4

---

Documented clearance across a set of compounds
test: Pharmacokinetics of single intravenous and oral administration in mice; type: in vivo; conditions: mouse, plasma, single intravenous administration, 0.5 mg/kg/day, read-out: Clearance rate Cl
API: value field is a number in mL/min/kg; no unit string.

{"columns": ["smi", "clearance (mL/min/kg)"],
 "data": [
  ["COc1cc(F)cc([C@@H](CO)NC(=O)[C@@H](C)N2Cc3ccc(-c4nc(N[C@H]5CCOC[C@H]5F)ncc4Cl)cc3S2(=O)=O)c1", 13.8]
]}

Inquiry: Give the measured clearance for [2H]C1([2H])CC(Nc2ncc(Cl)c(-c3ccc4c(c3)S(=O)(=O)N([C@H](C)C(=O)N[C@H](CO)c3cc(F)cc(OC)c3)C4)n2)CC([2H])([2H])O1
Reply text: 7.03

Inquiry: Give the measured clearance for COc1cc(F)cc([C@@H](CO)NC(=O)[C@@H](C)N2Cc3ccc(-c4nc(NC5CCOCC5)ncc4Cl)cc3S2(=O)=O)c1
Reply text: 10.3

Inquiry: Give the measured clearance for COc1cc(F)cc([C@@H](CO)NC(=O)[C@@H](C)N2Cc3ccc(-c4nc(NC5CCOCC5)ncc4Br)cc3S2(=O)=O)c1
Reply text: 19

---

assay: Pharmacokinetics of single intravenous and oral administration in dogs; format: in vivo; settings: plasma; dog, oral 10 mg/kg/day vs intravenous 2 mg/kg/day
attribute-measured: bioavailability (%)
API: value field is a number in %; no unit string.

Inquiry: Give the measured bioavailability for COc1cc(F)cc([C@@H](CO)NC(=O)[C@@H](C)N2Cc3ccc(-c4nc(NC5CCOCC5)ncc4Br)cc3S2(=O)=O)c1
Reply text: 59.8

---

experiment: Pharmacokinetics of single intravenous and oral administration in mice; type: in vivo; conditions: mouse, plasma, po, 50 mg/kg/day, single oral administration, 50 mg/kg/day, read-out: Maximum plasma drug concentration Cmax
attribute-measured: Cmax (µM)
API: value field is a number in µM; no unit string.

Inquiry: Give the measured Cmax for [2H]C1([2H])CC(Nc2ncc(Cl)c(-c3ccc4c(c3)S(=O)(=O)N([C@H](C)C(=O)N[C@H](CO)c3cc(F)cc(OC)c3)C4)n2)CC([2H])([2H])O1
Reply text: 124

---

Documented IC50 across a set of compounds
Tested on: Calu-6 cells
Test: Calu-6 (Kras Q61K) antiproliferative activity experiment (CellTiterGlo)
Assay type: cell-based, human
Details: cultured three days
Description: Experimental Embodiment 1: Calu-6 (Kras^Q61K) Antiproliferative Activity Experiment (1) cell culture medium: 88% RPMI-1640, 10% fetal bovine serum, 1% L-glutamine and 1% penicillin-streptomycin; (2) culture medium, trypsin and DPBS were preheated in a 37° C. water bath; […] (1) CTG was added and the plate was read: 20 μL of CellTiterGlo was added to each well of the cell plate, and the cell plate was shaken in the dark for 10 min. and the plate was read on Envision.

{"columns": ["compound", "observed-result"],
 "data": [
  ["COc1cc(F)cc([C@@H](CO)NC(=O)[C@@H](C)N2Cc3ccc(-c4nc(NC5CCOCC5)ncc4Cl)cc3S2(=O)=O)c1 [Compound 4]", "239 nM"]
]}

Inquiry: Give the measured IC50 for COc1cc(F)cc([C@@H](CO)NC(=O)[C@@H](C)N2Cc3ccc(-c4nc(NC5CCOCC5)ncc4Cl)cc3S2(=O)=O)c1 [Compound 1]
Reply text: 88.5 nM

---

assay: Pharmacokinetics of single intravenous and oral administration in dogs; assay type: in vivo; details: plasma; dog, intravenous injection, 2 mg/kg/day; read-out: Clearance rate
attribute-measured: clearance (mL/min/kg)
API: value field is a number in mL/min/kg; no unit string.

Inquiry: Give the measured clearance for COc1cc(F)cc([C@@H](CO)NC(=O)[C@@H](C)N2Cc3ccc(-c4nc(NC5CCOCC5)ncc4Br)cc3S2(=O)=O)c1
Reply text: 1.34

---

Documented IC50 across a set of compounds
System: Colo205 cells
Experiment: Colo205 (BRAF V600E) antiproliferative activity experiment (CellTiter-glo)
Type: cell-based
Conditions: Homo sapiens, COLO 205, 72 h, cultured 3 days
Protocol: Experimental Embodiment 4: Colo205 (BRAF^V600E) Antiproliferative Activity Experiment […] COLO205 cells were seeded in a white 96-well plate with […] of cell suspension per well containing 3000 of COLO205 cells. […] Another cell plate was prepared, and the signal value was read as the maximum value (max value in the following equation) on the day of administration to participate in data analysis. […] A multi-marker analyzer reading was used. […] A multi-marker analyzer reading was used. […]
API: value field is a number in nM; no unit string.

// known answers, use as guide
{"columns": ["compound", "attribute-measured", "unit-text", "observed-result"],
 "data": [
  ["COc1cc(F)cc([C@@H](CO)NC(=O)[C@@H](C)N2Cc3ccc(-c4nc(NC5CCOCC5)ncc4Br)cc3S2(=O)=O)c1 [Compound 3]", "IC50", "nM", 16],
  ["[2H]C1([2H])CC(Nc2ncc(Br)c(-c3ccc4c(c3)S(=O)(=O)N([C@H](C)C(=O)N[C@H](CO)c3cc(F)cc(OC)c3)C4)n2)CC([2H])([2H])O1 [Compound 12]", "IC50", "nM", 21],
  ["COc1cc(F)cc([C@@H](CO)NC(=O)[C@@H](C)N2Cc3ccc(-c4nc(N[C@H]5CCOC[C@H]5F)ncc4Cl)cc3S2(=O)=O)c1 [Compound 11]", "IC50", "nM", 16],
  ["[2H]C1([2H])CC(Nc2ncc(Cl)c(-c3ccc4c(c3)S(=O)(=O)N([C@H](C)C(=O)N[C@H](CO)c3cc(F)cc(OC)c3)C4)n2)CC([2H])([2H])O1 [Compound 9]", "IC50", "nM", 14]
]}

# input for lookup
Inquiry: Give the measured IC50 for COc1cc(F)cc([C@@H](CO)NC(=O)[C@@H](C)N2Cc3ccc(-c4nc(N[C@H]5CCOC[C@H]5F)ncc4Br)cc3S2(=O)=O)c1 [Compound 13]
Reply text: 21
